# EXPERIMENT_NOTES: Pharmacokinetic study in beagles
# Type: in vivo
# CONDITION_CONTEXT: both, beagle, dog, plasma, po, 10 mg/kg
VALUE_TYPE: half-life (h)
Numbers only here, please. The scale is h.

Entry COc1cc2nccc(Oc3ccc(NC(=S)NC4CC4)c(Cl)c3F)c2cc1C(N)=O [WXFL-152] ; half-life = 5.77

====

# EXPERIMENT_NOTES: Pharmacokinetic study in rats
# Format: in vivo
# CONDITION_CONTEXT: both, Sprague-Dawley, rat, plasma, po, 50 mg/kg/day
VALUE_TYPE: Tmax at 7 days
Give the value; after it, write the unit.

Entry COc1cc2nccc(Oc3ccc(NC(=S)NC4CC4)c(Cl)c3F)c2cc1C(N)=O [WXFL-152] ; Tmax at 7 days = 1.42 h

====

# EXPERIMENT_NOTES: Pharmacokinetic study in beagles
# Type: in vivo
# CONDITION_CONTEXT: both, beagle, dog, plasma, iv, 2 mg/kg
VALUE_TYPE: Cmax (µM)
Numbers only here, please. The scale is µM.

Entry COc1cc2nccc(Oc3ccc(NC(=S)NC4CC4)c(Cl)c3F)c2cc1C(N)=O ; Cmax = 4.36

====

# EXPERIMENT_NOTES: Pharmacokinetic study in beagles
# Assay type: in vivo
# CONDITION_CONTEXT: both, beagle, dog, plasma, po, 30 mg/kg
VALUE_TYPE: half-life (h)
Numbers only here, please. The scale is h.

Entry COc1cc2nccc(Oc3ccc(NC(=S)NC4CC4)c(Cl)c3F)c2cc1C(N)=O ; half-life = 5.25

====

# EXPERIMENT_NOTES: Pharmacokinetic study in rats
# Type: in vivo
# CONDITION_CONTEXT: both, Sprague-Dawley, rat, plasma, po, 150 mg/kg
VALUE_TYPE: AUC(0-inf)

Entry COc1cc2nccc(Oc3ccc(NC(=S)NC4CC4)c(Cl)c3F)c2cc1C(N)=O [WXFL-152] ; AUC(0-inf) = 233 µM·h

====

# EXPERIMENT_NOTES: Pharmacokinetic study in rats
# Type: in vivo
# CONDITION_CONTEXT: both, Sprague-Dawley, rat, plasma, iv, 3 mg/kg
VALUE_TYPE: Vd (L/kg)
Numbers only here, please. The scale is L/kg.

Entry COc1cc2nccc(Oc3ccc(NC(=S)NC4CC4)c(Cl)c3F)c2cc1C(N)=O ; Vd = 0.26

====

# TEST_SYSTEM: UniProt:P12931
# Sequence (P12931 whole entry): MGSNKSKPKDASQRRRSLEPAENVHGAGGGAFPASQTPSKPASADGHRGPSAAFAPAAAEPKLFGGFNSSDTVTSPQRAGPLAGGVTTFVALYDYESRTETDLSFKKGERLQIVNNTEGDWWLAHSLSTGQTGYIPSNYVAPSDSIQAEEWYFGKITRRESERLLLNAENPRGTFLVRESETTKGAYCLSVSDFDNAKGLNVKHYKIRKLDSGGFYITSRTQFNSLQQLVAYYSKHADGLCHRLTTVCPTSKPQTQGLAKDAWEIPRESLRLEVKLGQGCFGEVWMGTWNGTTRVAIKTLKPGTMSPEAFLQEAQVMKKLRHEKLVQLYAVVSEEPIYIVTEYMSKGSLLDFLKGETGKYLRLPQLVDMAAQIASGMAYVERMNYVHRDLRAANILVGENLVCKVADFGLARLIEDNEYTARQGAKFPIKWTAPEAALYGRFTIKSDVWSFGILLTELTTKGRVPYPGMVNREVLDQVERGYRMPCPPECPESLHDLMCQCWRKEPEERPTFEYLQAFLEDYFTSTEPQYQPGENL
VALUE_TYPE: IC50

Here COc1cc2nccc(Oc3ccc(NC(=S)NC4CC4)c(Cl)c3F)c2cc1C(N)=O [WXFL-152] was tested on UniProt:P12931, and its IC50 came to 2650 nM

====

# EXPERIMENT_NOTES: Pharmacokinetic study in rats
# Assay type: in vivo
# CONDITION_CONTEXT: both, Sprague-Dawley, rat, plasma, iv, 3 mg/kg
VALUE_TYPE: clearance (mL/min/kg)
Numbers only here, please. The scale is mL/min/kg.

Entry COc1cc2nccc(Oc3ccc(NC(=S)NC4CC4)c(Cl)c3F)c2cc1C(N)=O [WXFL-152] ; clearance = 3.24

====

# TEST_SYSTEM: MAP4K4 (Homo sapiens, UniProt O95819)
# Sequence (O95819 whole entry): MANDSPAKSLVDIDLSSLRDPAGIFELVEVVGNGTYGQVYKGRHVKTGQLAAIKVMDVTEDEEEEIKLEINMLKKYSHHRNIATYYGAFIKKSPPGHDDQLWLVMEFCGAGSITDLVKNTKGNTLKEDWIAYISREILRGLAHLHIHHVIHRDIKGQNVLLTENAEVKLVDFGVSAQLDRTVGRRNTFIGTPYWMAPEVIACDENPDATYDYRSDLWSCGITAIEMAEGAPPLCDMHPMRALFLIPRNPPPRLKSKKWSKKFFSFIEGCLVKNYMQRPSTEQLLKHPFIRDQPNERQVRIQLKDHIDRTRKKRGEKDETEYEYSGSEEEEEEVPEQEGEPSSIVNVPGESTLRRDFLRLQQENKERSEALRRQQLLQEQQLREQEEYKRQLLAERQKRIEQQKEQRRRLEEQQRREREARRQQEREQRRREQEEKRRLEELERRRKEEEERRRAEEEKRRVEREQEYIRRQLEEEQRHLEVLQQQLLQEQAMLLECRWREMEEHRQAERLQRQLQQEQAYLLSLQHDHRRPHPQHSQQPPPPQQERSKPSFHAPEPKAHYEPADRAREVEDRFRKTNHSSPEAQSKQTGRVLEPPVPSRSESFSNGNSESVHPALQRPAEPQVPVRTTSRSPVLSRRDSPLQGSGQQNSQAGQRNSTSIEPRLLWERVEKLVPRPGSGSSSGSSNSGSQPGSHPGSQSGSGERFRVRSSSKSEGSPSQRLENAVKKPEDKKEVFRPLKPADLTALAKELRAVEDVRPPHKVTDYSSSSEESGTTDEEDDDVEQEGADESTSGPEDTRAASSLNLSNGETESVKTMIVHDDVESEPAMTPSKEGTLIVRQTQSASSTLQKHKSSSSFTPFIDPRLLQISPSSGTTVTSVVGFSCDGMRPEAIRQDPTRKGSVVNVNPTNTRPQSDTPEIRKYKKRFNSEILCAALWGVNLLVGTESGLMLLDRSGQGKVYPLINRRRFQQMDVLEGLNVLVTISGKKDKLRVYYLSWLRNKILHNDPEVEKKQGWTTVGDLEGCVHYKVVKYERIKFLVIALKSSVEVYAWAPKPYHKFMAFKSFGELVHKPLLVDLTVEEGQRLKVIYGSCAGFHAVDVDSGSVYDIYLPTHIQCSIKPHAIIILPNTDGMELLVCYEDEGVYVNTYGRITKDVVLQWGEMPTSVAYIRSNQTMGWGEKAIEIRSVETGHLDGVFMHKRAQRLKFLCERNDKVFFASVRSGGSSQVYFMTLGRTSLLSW
VALUE_TYPE: IC50 (µM)
Numbers only here, please. The scale is µM.

Entry COc1cc2nccc(Oc3ccc(NC(=S)NC4CC4)c(Cl)c3F)c2cc1C(N)=O ; IC50 = 0.079
